Values compiled from patent US20180171001A1.

Measured neutralization IC50, listed per entry for reference.
biological target: Env of HIV-1 strain 3415.v1.c1 (HIV-1); assay: cell-based or functional assay

>  <binder>
γ46κ5 (antibody, V domains shown) VH: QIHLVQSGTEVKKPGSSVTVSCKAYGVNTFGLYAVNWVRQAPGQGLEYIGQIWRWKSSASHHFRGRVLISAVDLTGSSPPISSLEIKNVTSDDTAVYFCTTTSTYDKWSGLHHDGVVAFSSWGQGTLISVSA VL: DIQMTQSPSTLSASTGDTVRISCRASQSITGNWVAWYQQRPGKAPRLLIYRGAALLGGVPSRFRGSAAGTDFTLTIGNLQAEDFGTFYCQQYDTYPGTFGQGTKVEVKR

>  <neutralization IC50>
> 15 µg/mL

$$$$
>  <binder>
γ52κ18 (antibody, V domains shown) VH: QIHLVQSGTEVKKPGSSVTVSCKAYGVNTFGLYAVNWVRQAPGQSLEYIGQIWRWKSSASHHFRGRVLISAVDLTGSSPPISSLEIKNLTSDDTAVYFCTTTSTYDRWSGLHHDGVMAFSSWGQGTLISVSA VL: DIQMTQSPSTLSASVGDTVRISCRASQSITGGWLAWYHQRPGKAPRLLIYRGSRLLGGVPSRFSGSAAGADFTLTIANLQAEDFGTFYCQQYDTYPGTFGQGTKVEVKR

>  <neutralization IC50>
> 15 µg/mL

$$$$
>  <binder>
8ANC3430 (antibody, V domains shown) VH: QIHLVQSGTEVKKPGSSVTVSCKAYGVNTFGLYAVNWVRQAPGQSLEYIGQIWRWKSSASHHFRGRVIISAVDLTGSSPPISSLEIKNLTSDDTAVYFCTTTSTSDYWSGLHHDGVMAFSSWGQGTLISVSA VL: DIQMTQSPSTLSASVGDTVRISCRASQSITGGWLAWYHQRPGKAPRLLIYRGSRLLGGVPSRFSGSAAGTDFTLTIANLQAEDFGTFYCQQYDTYPGTFGQGTKVEVKR

>  <neutralization IC50>
> 23 µg/mL

$$$$
>  <binder>
8ANC3044 (antibody, V domains shown) VH: QIHLVQSGTEVRKPGSSVTVSCKAYGVNTFGLYAVNWVRQAPGQSLEYIGQIWRWKSSASHHFRGRVLISAVDLTGSSPPISSLEIKNLTSDDTAVYFCTTTSTYDKWSGLHHDGVMAFSSWGQGTLISVSA VL: DIQMTQSPSTLSASIGDTVRISCRASQSITGNWVAWYQQRPGKAPRLLIYRGAALLGGVPSRFSGSAAGTDFTLTIGNLQTEDFGTFYCQQYDTYPGTFGQGTKVEVKR

>  <neutralization IC50>
7.56 µg/mL

$$$$
>  <binder>
γ15κ61 (antibody, V domains shown) VH: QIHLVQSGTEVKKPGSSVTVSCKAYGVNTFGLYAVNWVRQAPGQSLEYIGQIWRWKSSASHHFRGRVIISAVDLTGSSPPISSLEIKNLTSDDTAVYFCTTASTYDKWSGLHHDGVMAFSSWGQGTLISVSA VL: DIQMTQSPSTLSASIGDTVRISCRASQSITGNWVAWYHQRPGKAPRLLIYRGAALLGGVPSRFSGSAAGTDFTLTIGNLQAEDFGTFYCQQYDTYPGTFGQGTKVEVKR

>  <neutralization IC50>
> 15 µg/mL

$$$$
